Reported hGluc-R EC50 (pM); cAMP production values for a set of binders
MEASURED_TARGET: human glucagon receptor (hGCGR) (human, UniProt P47871 26-477)
Sequence (P47871 26-477): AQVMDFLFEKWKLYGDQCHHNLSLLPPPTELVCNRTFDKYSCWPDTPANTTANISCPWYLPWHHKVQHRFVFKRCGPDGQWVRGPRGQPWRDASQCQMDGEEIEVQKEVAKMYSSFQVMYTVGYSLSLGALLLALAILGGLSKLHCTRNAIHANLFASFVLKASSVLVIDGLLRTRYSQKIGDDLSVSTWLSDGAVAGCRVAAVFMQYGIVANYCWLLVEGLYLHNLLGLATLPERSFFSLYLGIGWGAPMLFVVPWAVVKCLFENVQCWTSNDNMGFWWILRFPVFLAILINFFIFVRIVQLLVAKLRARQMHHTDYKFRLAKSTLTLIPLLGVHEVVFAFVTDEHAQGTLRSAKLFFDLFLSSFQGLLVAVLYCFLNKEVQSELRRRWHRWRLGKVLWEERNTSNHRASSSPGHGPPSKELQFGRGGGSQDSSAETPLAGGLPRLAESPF
MEASUREMENT_PROTOCOL: cell-based or functional assay
Starred links: 1 amine or outer side, 2 acyl side, 3 side chain; linkers in the order of their positions; H or OH if unused. Non-standard residues stand in square brackets, D forms with d. Groups on a side chain read outwards from the residue. No end group written: not given here. *: point of attachment. C20 diacid = O=C(O)CCCCCCCCCCCCCCCCCCC(=O)*; C18 diacid = O=C(O)CCCCCCCCCCCCCCCCC(=O)*; γGlu = O=C(O)[C@H](CCC(=O)[*:2])N[*:1]; αMeF = C[C@](N)(Cc1ccccc1)C(=O)O; AEEA = NCCOCCOCC(=O)O; Aib = CC(C)(N)C(=O)O
Reply numerically in pM, unit not repeated.

Illustrative cases are given below, each with its answer.
{"columns": ["BINDER", "hGluc-R EC50 (pM); cAMP production"],
 "data": [
  ["HXIGSXTSDVSKXLDSQAAQDFVXWIANT (Aib at 2; αMePhe at 6 and 13; K(O2Oc-O2Oc-γE-C18diacid)24; C-terminal amide) [Peptide 359]", 5050],
  ["H[Aib]HGS[αMeF]TSDVSK[αMeF]LDSRAAQD[αMeF]VK([AEEA-AEEA-γGlu-C18 diacid])SIANT-NH2 (not fully specified) [Peptide 379]", 85.7]
]}

For the binder HXHGTFTSDVSKXLDSQAAQDFVXWIANT (Aib at 2; αMePhe at 13; K(γE-C20diacid)24; C-terminal amide) [Peptide 347] , give its reported hGluc-R EC50 (pM); cAMP production.
597

Hello, please tell me recorded hGluc-R EC50 (pM); cAMP production for this one: H[Aib]HGS[αMeF]TSDVSK[αMeF]LDSRAAQDFVK([AEEA-AEEA-γGlu-C20 diacid])WIANT-NH2 (not fully specified) [Peptide 367]
72.4

Write down hGluc-R EC50 (pM); cAMP production measured for item HXHGTFTSDVSKXLDSQAAQDFVXWIANT (Aib at 2; αMePhe at 6 and 13; K(O2Oc-O2Oc-γE-C18diacid)24; C-terminal amide) [Peptide 348]
4110

Please supply the value of reported hGluc-R EC50 (pM); cAMP production for the item HXHGSXTSDVSKXLDSQAAQDFVXWIANT (Aib at 2; αMePhe at 6 and 13; K(γE-γE-(PEG)2-γE-γE-C18diacid)24 (printed YE-YE-(PEG)2-γE-γE-); C-terminal amide) [Peptide 353]
163

Please supply the value of reported hGluc-R EC50 (pM); cAMP production for the item HXHGSXTSDVSKXLDSQAAQDFVXWIANT (Aib at 2; αMePhe at 6 and 13; K(γE-C20diacid)24; C-terminal amide) [Peptide 354]
902

Tell me its hGluc-R EC50 (pM); cAMP production given HXHGSXTSDVSKXLDSQAAQDFVXWIANT (Aib at 2; αMePhe at 6 and 13; K(O2Oc-O2Oc-γE-C20diacid)24; C-terminal amide) [Peptide 356] as the entry.
316

Let me know recorded hGluc-R EC50 (pM); cAMP production for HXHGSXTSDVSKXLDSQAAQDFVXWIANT (Aib at 2; αMePhe at 6 and 13; K(γE-γE-(PEG)2-γE-γE-C20diacid)24; C-terminal amide) [Peptide 357] , thanks.
550

Look up and report measured hGluc-R EC50 (pM); cAMP production for this entry: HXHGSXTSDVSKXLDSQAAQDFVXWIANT (Aib at 2; αMePhe at 6 and 13; K((PEG)2-(PEG)2-γE-γE-C20diacid)24; C-terminal amide) [Peptide 355]
478

Query hGluc-R EC50 (pM); cAMP production for HXQGSXTSDVSKXLDSQAAQDFVXWIANT (Aib at 2; αMePhe at 6 and 13; K(O2Oc-O2Oc-γE-C18diacid)24; C-terminal amide) [Peptide 349]
83.7

Supply recorded hGluc-R EC50 (pM); cAMP production for H[Aib]HGS[αMeF]TSDVSK[αMeF]LDSQAAQD[αMeF]VK([AEEA-AEEA-γGlu-γGlu-C20 diacid])[Aib]IANT-NH2 [Peptide 384] here.
1240
